# IC50 annotations
Target: h-NK1 (Homo sapiens, UniProt P25103)
Sequence (P25103 whole entry): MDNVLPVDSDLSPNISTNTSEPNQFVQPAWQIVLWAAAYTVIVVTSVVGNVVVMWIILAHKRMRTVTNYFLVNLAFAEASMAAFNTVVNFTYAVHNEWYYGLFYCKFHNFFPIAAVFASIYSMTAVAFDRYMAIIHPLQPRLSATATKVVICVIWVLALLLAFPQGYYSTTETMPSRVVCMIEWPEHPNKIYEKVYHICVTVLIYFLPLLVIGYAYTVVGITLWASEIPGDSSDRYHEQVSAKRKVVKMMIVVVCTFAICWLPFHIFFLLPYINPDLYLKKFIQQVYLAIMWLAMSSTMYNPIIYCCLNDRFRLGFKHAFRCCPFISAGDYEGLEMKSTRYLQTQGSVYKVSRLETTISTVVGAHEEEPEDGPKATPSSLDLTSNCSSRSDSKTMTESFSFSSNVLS
Assay: Signal transduction (intracellular Ca++, FLIPR), functional antagonistic activity
Type: cell-based
Details: Ca++ peak, read-out: pIC50 h-NK1 (converted)
Procedure: This test evaluates in vitro functional NK1 antagonistic activity. For the measurements of intracellular Ca^++ concentrations the cells were grown on 96-well (black wall/transparent bottom) plates from Costar for 2 days until they reached confluence. […] The cells were preincubated with a concentration range of antagonists for 20 min at RT and Ca^++-signals after addition of the agonists were measured in a Fluorescence Image Plate Reader (FLIPR from Molecular Devices, Crawley, England). […]
Numeric only. Scale: nM

Recorded results for 5 compounds are shown here.
Q. Tell me reported IC50 for Cc1cc(C(=O)N2CCCC(N3CCN(C4CCN(C(=O)c5cc(C(F)(F)F)cc(C(F)(F)F)c5)C(Cc5ccccc5)C4)CC3)CC2)no1 (centres unmarked) [Compound 8] , tested with h-NK1 (Homo sapiens, UniProt P25103).
A. 28.2

Q. Tell me reported IC50 for Cc1cccc(C(=O)N2CCCC(N3CCN(C4CCN(C(=O)c5cc(C(F)(F)F)cc(C(F)(F)F)c5)C(Cc5ccccc5)C4)CC3)CC2)c1 (centres unmarked) [Compound 9] , tested with h-NK1 (Homo sapiens, UniProt P25103).
A. 302

Q. Tell me reported IC50 for O=C(c1cccc(F)c1)N1CCCC(N2CCN(C3CCN(C(=O)c4cc(C(F)(F)F)cc(C(F)(F)F)c4)C(Cc4ccccc4)C3)CC2)CC1 (centres unmarked) [Compound 6] , tested with h-NK1 (Homo sapiens, UniProt P25103).
A. 158

Q. Tell me reported IC50 for CC(C)(C)OC(=O)N1CCCC(N2CCN(C3CCN(C(=O)c4cc(C(F)(F)F)cc(C(F)(F)F)c4)C(Cc4ccccc4)C3)CC2)CC1 (centres unmarked) [Compound 1] , tested with h-NK1 (Homo sapiens, UniProt P25103).
A. 32.4

Q. Tell me reported IC50 for O=C(c1ccoc1)N1CCCC(N2CCN(C3CCN(C(=O)c4cc(C(F)(F)F)cc(C(F)(F)F)c4)C(Cc4ccccc4)C3)CC2)CC1 (centres unmarked) [Compound 7] , tested with h-NK1 (Homo sapiens, UniProt P25103).
A. 28.8

Next:
Q. Tell me reported IC50 for O=C(c1ccccc1)N1CCCC(N2CCN(C3CCN(C(=O)c4cc(C(F)(F)F)cc(C(F)(F)F)c4)C(Cc4ccccc4)C3)CC2)CC1 (centres unmarked) [Compound 3] , tested with h-NK1 (Homo sapiens, UniProt P25103).
A. 200

Q. Tell me reported IC50 for CCOC(=O)N1CCCC(N2CCN(C3CCN(C(=O)c4cc(C(F)(F)F)cc(C(F)(F)F)c4)C(Cc4ccccc4)C3)CC2)CC1 (centres unmarked) [Compound 4] , tested with h-NK1 (Homo sapiens, UniProt P25103).
A. 166

Q. Tell me reported IC50 for O=C(c1ccc(F)c(F)c1)N1CCCC(N2CCN(C3CCN(C(=O)c4cc(C(F)(F)F)cc(C(F)(F)F)c4)C(Cc4ccccc4)C3)CC2)CC1 (centres unmarked) [Compound 5] , tested with h-NK1 (Homo sapiens, UniProt P25103).
A. 148

* * *

# IC50 annotations
Molecular target: h-NK3 (Homo sapiens)
Sequence (P29371 1-465): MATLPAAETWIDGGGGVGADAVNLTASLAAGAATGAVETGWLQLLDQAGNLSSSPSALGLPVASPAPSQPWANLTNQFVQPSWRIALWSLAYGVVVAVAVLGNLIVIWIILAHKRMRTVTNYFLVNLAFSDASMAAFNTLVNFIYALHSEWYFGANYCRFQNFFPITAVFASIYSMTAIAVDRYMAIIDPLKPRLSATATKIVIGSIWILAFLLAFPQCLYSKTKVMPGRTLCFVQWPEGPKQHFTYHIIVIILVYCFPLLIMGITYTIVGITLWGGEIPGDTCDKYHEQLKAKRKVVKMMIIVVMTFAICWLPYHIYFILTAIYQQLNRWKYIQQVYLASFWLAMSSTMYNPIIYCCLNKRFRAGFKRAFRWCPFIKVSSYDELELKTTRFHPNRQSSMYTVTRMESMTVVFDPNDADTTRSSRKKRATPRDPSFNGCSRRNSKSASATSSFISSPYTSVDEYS
Assay: Signal transduction (intracellular Ca++, FLIPR), functional antagonistic activity
Format: cell-based
Conditions: Ca++ peak, read-out: pIC50 h-NK3 (converted)
Method: [Worded in the source for another target; this target is reported under the same test.] This test evaluates in vitro functional NK1 antagonistic activity. For the measurements of intracellular Ca^++ concentrations the cells were grown on 96-well (black wall/transparent bottom) plates from Costar for 2 days until they reached confluence. […] The cells were preincubated with a concentration range of antagonists for 20 min at RT and Ca^++-signals after addition of the agonists were measured in a Fluorescence Image Plate Reader (FLIPR from Molecular Devices, Crawley, England). […]
Numeric only. Scale: µM

Q. Consider the compound shown here: Cc1cc(C(=O)N2CCCC(N3CCN(C4CCN(C(=O)c5cc(C(F)(F)F)cc(C(F)(F)F)c5)C(Cc5ccccc5)C4)CC3)CC2)no1 (stereo not shown) What is its recorded IC50?
A. 10

Next:
Q. Consider the compound shown here: O=C(c1ccoc1)N1CCCC(N2CCN(C3CCN(C(=O)c4cc(C(F)(F)F)cc(C(F)(F)F)c4)C(Cc4ccccc4)C3)CC2)CC1 (stereo not shown) What is its recorded IC50?
A. 1.91

Q. Consider the compound shown here: O=C(c1cccc(F)c1)N1CCCC(N2CCN(C3CCN(C(=O)c4cc(C(F)(F)F)cc(C(F)(F)F)c4)C(Cc4ccccc4)C3)CC2)CC1 (stereo not shown) What is its recorded IC50?
A. 1.35

Q. Consider the compound shown here: CC(C)(C)OC(=O)N1CCCC(N2CCN(C3CCN(C(=O)c4cc(C(F)(F)F)cc(C(F)(F)F)c4)C(Cc4ccccc4)C3)CC2)CC1 (stereo not shown) What is its recorded IC50?
A. 10

Value source: patent US7514424B2
